# system_under_test: Transcription intermediary factor 1-alpha (Homo sapiens)
# run_parameters: Compound concentration 20.0 uM
The entries below come with measured ΔTm values attached.
result_type: ΔTm (°C)

{"smiles_representation": "O=C(Nc1ccccc1C(=O)O)c1cc(S(=O)(=O)c2ccccc2)ccc1Cl", "numeric_value": 1.1}
{"smiles_representation": "CC(=O)N[C@@H](CC(=O)O)C(=O)N[C@@H](CCC(=O)O)C(=O)N[C@H](C(=O)N[C@@H](CC(=O)O)C(=O)CCl)C(C)C", "numeric_value": -0.93}
{"smiles_representation": "O=C(NO)c1ccc(CN2CCCc3cc(Cl)ccc32)cc1", "numeric_value": -1.53}

###

# system_under_test: Transcription intermediary factor 1-alpha (Homo sapiens)
# run_parameters: Compound concentration 20.0 uM

{"smiles_representation": "C[C@@H]1O[C@@H](CC(=O)O)CC2=C1C(=O)c1c(O)cccc1C2=O", "ΔTm": "-2.3 °C"}
{"smiles_representation": "CCn1c(=S)[nH]c2cc3c(NCc4ccccc4N4CCC(CO)CC4)ncnc3cc21", "ΔTm": "-0.23 °C"}
{"smiles_representation": "N#Cc1ccc(Nc2cnccc2SCc2ccccc2C(=O)O)c2ccccc12", "ΔTm": "1.31 °C"}
{"smiles_representation": "CC(=O)N[C@@H](Cc1ccc(O)cc1)C(=O)N[C@H](C(=O)N[C@@H](C)C(=O)N[C@H](C=O)CC(=O)O)C(C)C", "ΔTm": "-0.33 °C"}
{"smiles_representation": "COCCOc1cc(CC2CCN(CCc3ccc4c(c3)C(=O)CCO4)CC2)ccc1Br", "ΔTm": "-0.98 °C"}

###

# system_under_test: Casein kinase I isoform delta (Homo sapiens)
# run_parameters: Compound concentration 20.0 uM
# Description: Thermal Shift Assay. Domain: start/stop: M1-K294
ΔTm listing for selected molecules.
result_type: ΔTm (°C)

{"smiles_representation": "Cc1ccc(C)c(-n2sc3cc(F)ccc3c2=O)c1", "system_under_test": "Casein kinase I isoform delta (Homo sapiens)", "result_type": "ΔTm", "numeric_value": -0.06}
{"smiles_representation": "CC(=O)N[C@@H](CC(=O)O)C(=O)N[C@@H](CCC(=O)O)C(=O)N[C@H](C(=O)N[C@@H](CC(=O)O)C(=O)CCl)C(C)C", "system_under_test": "Casein kinase I isoform delta (Homo sapiens)", "result_type": "ΔTm", "numeric_value": -0.06}
{"smiles_representation": "O=C(NC1CCC1)c1ccc2nc(-c3cccc(NS(=O)(=O)NCCN4CCCCC4)c3)cn2c1", "system_under_test": "Casein kinase I isoform delta (Homo sapiens)", "result_type": "ΔTm", "numeric_value": -0.21}
{"smiles_representation": "O=C1c2ccccc2C(=O)c2oc(-c3cccnc3)nc21", "system_under_test": "Casein kinase I isoform delta (Homo sapiens)", "result_type": "ΔTm", "numeric_value": -0.59}
{"smiles_representation": "N=C(N)SCc1ccc(CN2C(=O)C(=O)c3cc(C(F)(F)F)ccc32)cc1", "system_under_test": "Casein kinase I isoform delta (Homo sapiens)", "result_type": "ΔTm", "numeric_value": 0.19}

###

# system_under_test: Casein kinase I isoform delta (Homo sapiens)
# run_parameters: Compound concentration 20.0 uM
ΔTm overview
result_type: ΔTm

{"smiles_representation": "Cc1cc(C(=O)N2CCN(C3CN(C(=O)c4ccc(-c5ccccc5)cc4)C3)CC2)no1", "result_type": "ΔTm", "result": "0.33 °C"}
{"smiles_representation": "COc1cccc(-c2nccc3c2CN(c2ccccc2)C3=O)c1", "result_type": "ΔTm", "result": "0.41 °C"}
{"smiles_representation": "CCOCC1(COCC)CCC(c2n[nH]cc2CN(C)CCNC)CC1", "result_type": "ΔTm", "result": "0.56 °C"}
{"smiles_representation": "CCCCCCCCCCCCC/C=C/[C@@H](O)[C@H](CO)NC(=O)CCl", "result_type": "ΔTm", "result": "2.15 °C"}
{"smiles_representation": "CN(C)CCCCC(=O)Nc1ccc(NC(=S)NC(=O)c2ccc(C(C)(C)C)cc2)cc1", "result_type": "ΔTm", "result": "0.69 °C"}
{"smiles_representation": "N[C@@H](CCCCNC(=O)OCc1ccc([N+](=O)[O-])cc1)C(=O)N1CCCC1", "result_type": "ΔTm", "result": "-0.16 °C"}
{"smiles_representation": "CC(C)c1ccc(-c2cc(=O)c3ccccc3o2)cc1", "result_type": "ΔTm", "result": "0.58 °C"}
{"smiles_representation": "NS(=O)(=O)c1cc(-c2nnn[nH]2)c(NCc2cccs2)cc1Cl", "result_type": "ΔTm", "result": "0.19 °C"}
{"smiles_representation": "C=C(C)[C@@H](CC=C(C)C)C[C@@]12C[C@@H](CC=C(C)C)C(C)(C)[C@@](CC=C(C)C)(C(=O)C(C(=O)c3ccc(O)c(O)c3)=C1O)C2=O", "result_type": "ΔTm", "result": "0.51 °C"}
{"smiles_representation": "CC(=O)N[C@@H](Cc1ccc(O)cc1)C(=O)N[C@H](C(=O)N[C@@H](C)C(=O)N[C@@H](CC(=O)O)C(=O)CCl)C(C)C", "result_type": "ΔTm", "result": "0.22 °C"}
{"smiles_representation": "O=C(NCC1CCOCC1)c1n[nH]cc1NC(=O)c1c(F)cccc1F", "result_type": "ΔTm", "result": "1.77 °C"}
{"smiles_representation": "COc1cc2c(NC3CCN(C)CC3)cc(-c3ccc(C)o3)nc2cc1OCCCN1CCCC1", "result_type": "ΔTm", "result": "0.17 °C"}

Where do these numbers come from? They come from ChEMBL document CHEMBL5724796.
